// reported specific binding MFI per item
target: T1, human TIM-3 on cells (human, UniProt Q8TDQ0 22-301); assay: flow cytometry, human CD14+ monocytes donor2
T1 construct: also called CHO-Tim3; rec CHOK1 cells expressing huTIM-3
Readout Name: specific binding MFI (MFI)

>>> value_observed("Tim3_0026 (antibody, V domains shown) VH: QIQLVQSGPELKKPGETVKISCKASGYTFTDYSMHWVKQAPGRGLKWMGYINTETYEPTFGADFKGRFAFSLDTSATTAYLQINSLKTEDTATFFCGGGGYPAYWGQGTVVIVSA VL: DVLMTQTPLSLPVSLGDQASISCRSSRTILHSSGNTYLEWYLQKPGQSPKLLIYKVSNRFSGVPDRFSGSGSGTDFTLNISRVEAEDLGVYYCFQDSHVPFTFGTGTKLEIK")
1020
>>> value_observed("Tim3_0022 (antibody, V domains shown) VH: EVQLQESGPSLVKPSQTLSLTCSVTGDSIASAYWNWIRKFPGNKLEYMGYINYSGSTYYNPSLKSRISITRDTSQNQYYLQLNSVTTEDTATYYCVTGDYFDYWGRGTTLTVSS VL: DIQMTQSPSSLSAYLGGKVTITCKARQDVRKNIGWYQHKPGKGPRLLIWYTSTLQSGIPSRFSGSGSGRDYSFNINNLEPEDIATYYCLQYDNLPFTFGTGTKLEIR")
1110
>>> value_observed("Tim3_0030 (antibody, V domains shown) VH: QIQLVQSGPELKKPGETVKISCKASGYPFSEYSIHWVKQAPGKGLKWMVYVNTETGQPIVGDDFRGRFVLSLETSASTAYLQINNLKNEDTATYFCGGGGYPAYWGQGTLVTVSA VL: DVLMTQTPLSLPVSLGDQASISCRSSRSIVHSSGNTYLEWYLQKPGQSPKLLIYKVSNRFSGVPDRFSGSGSGTDFTLNISRVEAEDLGVYYCFQDSHVPFTFGTGTKLEIK")
419
